// provenance: ChEMBL document CHEMBL1142406

Reported MIC values for the following molecules.
system: Priestia megaterium; experiment: Antimicrobial activity against Bacillus megaterium by broth dilution technique; type: functional

Molecule: O=C1N/C(=N\c2nccs2)S/C1=C\c1cccc(Cl)c1
MIC, µg/mL: 0.15

Molecule: O=C1CS/C(=N\c2nsc3ccccc23)N1
MIC, µg/mL: 100

Molecule: O=C1N/C(=N\c2nccs2)S/C1=C\c1ccc([N+](=O)[O-])cc1
MIC, µg/mL: 0.7

Molecule: CC1(C)S[C@@H]2[C@H](NC(=O)[C@H](N)c3ccccc3)C(=O)N2[C@H]1C(=O)O [AMPICILLIN]
MIC, µg/mL: 0.07

Molecule: O=C1N/C(=N\c2nccs2)S/C1=C\c1ccccc1
MIC, µg/mL: 0.7
